MIC values for the compounds below.
# Test system: Staphylococcus aureus
# test_method_notes: Antibacterial activity against methicillin-resistant Staphylococcus aureus N315 after 24 hrs by micro broth dilution assay
# Assay type: functional
# experimental_parameters: N315, 24 h

compound	MIC, µg/mL
O=C(/C=C/c1ccc(F)cc1)c1nc2ccccc2[nH]1	64
CCCCn1c(C(=O)/C=C/c2ccc(Cl)cc2)nc2ccccc21	8
CCCCCCCCn1c(-c2cc(-c3ccc(Cl)cc3Cl)nc(N)n2)nc2ccccc21	256
CCCCCCn1c(C(=O)/C=C/c2ccc(F)cc2)nc2ccccc21	512
CCn1cc(C(=O)O)c(=O)c2cc(F)c(N3CCNCC3)cc21 [NORFLOXACIN]	1
O=C(/C=C/c1ccc(Cl)cc1)c1nc2ccccc2[nH]1	512
CCCCCCCCn1c(-c2cc(-c3ccc(C)cc3)nc(N)n2)nc2ccccc21	512
CCCCCCCn1c(C(=O)/C=C/c2ccc(Cl)cc2)nc2ccccc21	512
Cc1ccc(-c2cc(-c3nc4ccccc4[nH]3)nc(N)n2)cc1	8
CCCCCCCCn1c(-c2cc(-c3ccc(F)cc3)nc(N)n2)nc2ccccc21	256
CCCCn1c(C(=O)/C=C/c2ccc(C)cc2)nc2ccccc21	64
CCCCCCn1c(-c2cc(-c3ccc(F)cc3)nc(N)n2)nc2ccccc21	256
CCCCn1c(-c2cc(-c3ccc(Cl)cc3)nc(N)n2)nc2ccccc21	32
CCCCCCn1c(C(=O)/C=C/c2ccc(Cl)cc2Cl)nc2ccccc21	256
CCCCn1c(C(=O)/C=C/c2ccc(F)cc2)nc2ccccc21	8
CCCCCCCCn1c(C(=O)/C=C/c2ccc(C)cc2)nc2ccccc21	512
CCCCn1c(C(=O)/C=C/c2ccc(Cl)cc2Cl)nc2ccccc21	8
CCCCCCCn1c(C(=O)/C=C/c2ccc(Cl)cc2Cl)nc2ccccc21	512
CCCCCCCn1c(-c2cc(-c3ccc(Cl)cc3)nc(N)n2)nc2ccccc21	8
CCCCCCn1c(-c2cc(-c3ccc(Cl)cc3Cl)nc(N)n2)nc2ccccc21	512
Cc1ccc(/C=C/C(=O)c2nc3ccccc3[nH]2)cc1	8
